Reference for the values: patent US10975068B2

Biological target: full-length human RORγt (Homo sapiens (Human))
Sequence (P51449 other isoform, or with tags, fused parts or gaps): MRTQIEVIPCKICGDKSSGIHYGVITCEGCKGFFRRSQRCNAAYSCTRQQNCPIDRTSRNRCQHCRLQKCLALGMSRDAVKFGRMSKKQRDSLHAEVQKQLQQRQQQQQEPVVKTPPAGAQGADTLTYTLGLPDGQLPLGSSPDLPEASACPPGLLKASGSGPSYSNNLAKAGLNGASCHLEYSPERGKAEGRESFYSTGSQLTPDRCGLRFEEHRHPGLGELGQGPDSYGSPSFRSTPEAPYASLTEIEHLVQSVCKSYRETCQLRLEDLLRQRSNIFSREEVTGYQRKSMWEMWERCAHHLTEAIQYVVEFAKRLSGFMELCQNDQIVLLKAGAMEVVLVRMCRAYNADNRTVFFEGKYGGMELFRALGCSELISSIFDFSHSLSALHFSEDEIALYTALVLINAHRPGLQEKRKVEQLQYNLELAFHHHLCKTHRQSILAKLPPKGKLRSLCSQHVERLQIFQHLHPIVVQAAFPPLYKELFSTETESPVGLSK
Assay: RORγt (full-length human) reporter assay, Conditions B or C
Type: cell-based
Conditions: at 3 μM compound concentration; read-out: RORγt (FL) Reporter Assay B or C, % inhibition
Source text: RORγt (Full-Length Human) Reporter Assay: Cells used in this assay were transiently co-transfected with three different plasmids, one expressing the GAL4-DNA binding domain (DBD)-RORγt fusion protein under control of a CMV promoter (NH2-Gal4-DBD:RORC-COOH in pCMV-BD, Stratagene #211342), and two reporter plasmids—the firefly luciferase reporter under control of a GAL4 promoter (pFR-Luc 2×GAL4) and Renilla luciferase reporter under control of CMV promoter (pRL-CMV, Promega # E2261). […]
MEASURED_ENDPOINT: inhibition at 3 µM (%)

>  <COMPOUND>
O=C(N[C@@H]1CC[C@@H](O)C1)c1nc(C(=O)N2C3CCC2CC3)c(-c2cnc(N[C@@H](C3CC3)C(F)(F)F)cc2C(F)F)s1 [Example 437]

>  <DISPLAY_UNIT>
%

>  <inhibition at 3 µM>
90

$$$$
>  <COMPOUND>
C[C@H](Nc1cc(C(F)F)c(-c2sc(C(=O)NC3CCC3O)nc2C(=O)N2C3CCC2CC3)cn1)C(F)(F)F (some centres unmarked) [Example 290]

>  <DISPLAY_UNIT>
%

>  <inhibition at 3 µM>
103

$$$$
>  <COMPOUND>
C[C@H](CO)NC(=O)c1nc(C(=O)N2CCC[C@@H]2C)c(-c2cnc(N[C@@H](C)C(F)(F)F)cc2C(F)F)s1 [Example 284]

>  <DISPLAY_UNIT>
%

>  <inhibition at 3 µM>
111

$$$$
>  <COMPOUND>
O=C(N[C@H]1CCC[C@@H]1O)c1nc(C(=O)N2C3CCC2CC3)c(-c2cnc(N[C@@H](C3CC3)C(F)(F)F)cc2C(F)F)s1 [Example 451]

>  <DISPLAY_UNIT>
%

>  <inhibition at 3 µM>
99

$$$$
>  <COMPOUND>
C[C@H]1CCCN1C(=O)c1nc(C(=O)NCCC(C)(C)O)sc1-c1cnc(NC(C)(C)C)cc1C(F)(F)F [Example 338]

>  <DISPLAY_UNIT>
%

>  <inhibition at 3 µM>
107

$$$$
>  <COMPOUND>
C[C@H]1CCCN1C(=O)c1nc(C(=O)N2CC[C@@H](O)C2)sc1-c1cnc(NC(C)(C)C)cc1C(F)(F)F [Example 349]

>  <DISPLAY_UNIT>
%

>  <inhibition at 3 µM>
105

$$$$
>  <COMPOUND>
C[C@H]1CCCN1C(=O)c1nc(C(=O)N2CC[C@H](O)C2)sc1-c1cnc(NC(C)(C)C)cc1C(F)(F)F [Example 350]

>  <DISPLAY_UNIT>
%

>  <inhibition at 3 µM>
110

$$$$
>  <COMPOUND>
C[C@H]1CCCN1C(=O)c1nc(C(=O)N2CCC(C)(O)C2)sc1-c1cnc(NC(C)(C)C)cc1C(F)(F)F (some centres unmarked) [Example 364]

>  <DISPLAY_UNIT>
%

>  <inhibition at 3 µM>
111

$$$$
>  <COMPOUND>
C[C@H]1CCCN1C(=O)c1nc(C(=O)N[C@H]2COC[C@@H]2O)sc1-c1cnc(NC(C)(C)C)cc1C(F)(F)F [Example 348]

>  <DISPLAY_UNIT>
%

>  <inhibition at 3 µM>
105

$$$$
>  <COMPOUND>
C[C@H]1CCCN1C(=O)c1nc(C(=O)N2CC(C)(O)C2)sc1-c1cnc(NC(C)(C)C)cc1C(F)(F)F [Example 268]

>  <DISPLAY_UNIT>
%

>  <inhibition at 3 µM>
109

$$$$
>  <COMPOUND>
C[C@H]1CCCN1C(=O)c1nc(C(=O)NC2(CO)CC2)sc1-c1cnc(NC(C)(C)C)cc1C(F)(F)F [Example 263]

>  <DISPLAY_UNIT>
%

>  <inhibition at 3 µM>
107

$$$$
>  <COMPOUND>
C[C@H](Nc1cc(C(F)F)c(-c2sc(C(=O)NC3CCOCC3)nc2C(=O)N2CC(F)(F)C[C@@H]2C)cn1)C(F)(F)F [Example 448]

>  <DISPLAY_UNIT>
%

>  <inhibition at 3 µM>
99

$$$$
>  <COMPOUND>
C[C@H](Nc1cc(C(F)F)c(-c2sc(C(=O)N[C@@H]3CC[C@@H](O)C3)nc2C(=O)N2CC(F)(F)C[C@@H]2C)cn1)C(F)(F)F [Example 410]

>  <DISPLAY_UNIT>
%

>  <inhibition at 3 µM>
97

$$$$
>  <COMPOUND>
O=C(N[C@H]1CC[C@@H]1O)c1nc(C(=O)N2C3CCC2CC3)c(-c2cnc(N[C@@H](C3CC3)C(F)(F)F)cc2C(F)F)s1 (relative stereo) [Example 444]

>  <DISPLAY_UNIT>
%

>  <inhibition at 3 µM>
102

$$$$
>  <COMPOUND>
C[C@H]1CCCN1C(=O)c1nc(C(=O)NC2CCOCC2)sc1-c1cnc(NC(C)(C)C)cc1C(F)(F)F [Example 374]

>  <DISPLAY_UNIT>
%

>  <inhibition at 3 µM>
121

$$$$
>  <COMPOUND>
C[C@H]1CCCN1C(=O)c1nc(C(=O)NCC(C)(C)O)sc1-c1cnc(NC2CCCCC2)c(C#N)c1 [Example 281]

>  <DISPLAY_UNIT>
%

>  <inhibition at 3 µM>
98

$$$$
>  <COMPOUND>
C[C@H](Nc1cc(C(F)F)c(-c2sc(C(=O)N[C@H]3CCC[C@@H]3O)nc2C(=O)N2CC(F)(F)C[C@@H]2C)cn1)C(F)(F)F [Example 418]

>  <DISPLAY_UNIT>
%

>  <inhibition at 3 µM>
105

$$$$
>  <COMPOUND>
CC(C)(C)Nc1cc(C(F)F)c(-c2sc(C(=O)N[C@@H]3CCC[C@H]3O)nc2C(=O)N2C3CCC2CC3)cn1 [Example 434]

>  <DISPLAY_UNIT>
%

>  <inhibition at 3 µM>
103

$$$$
>  <COMPOUND>
C[C@H](NC(=O)c1nc(C(=O)N2CCC[C@@H]2C)c(-c2cnc(N[C@H](C)C(F)(F)F)cc2C(F)F)s1)C(C)(C)O [Example 304]

>  <DISPLAY_UNIT>
%

>  <inhibition at 3 µM>
102

$$$$
>  <COMPOUND>
C[C@H](Nc1cc(C(F)F)c(-c2sc(C(=O)N3CC(S(C)(=O)=O)C3)nc2C(=O)N2CCC[C@@H]2C)cn1)C(F)(F)F [Example 450]

>  <DISPLAY_UNIT>
%

>  <inhibition at 3 µM>
106

$$$$
>  <COMPOUND>
C[C@H]1CCCN1C(=O)c1nc(C(=O)NC2CCS(=O)(=O)CC2)sc1-c1cnc(NC(C)(C)C)cc1C(F)F [Example 435]

>  <DISPLAY_UNIT>
%

>  <inhibition at 3 µM>
105

$$$$
>  <COMPOUND>
CC[C@H](Nc1cc(C(F)F)c(-c2sc(C(=O)N[C@H](C)CO)nc2C(=O)N2CC(F)(F)C[C@@H]2C)cn1)C(F)(F)F [Example 423]

>  <DISPLAY_UNIT>
%

>  <inhibition at 3 µM>
103

$$$$
>  <COMPOUND>
[2H]C([2H])(NC(=O)c1nc(C(=O)N2CCC[C@@H]2C)c(-c2cnc(N[C@@H](C)C(F)(F)F)cc2C(F)F)s1)C(C)(C)O [Example 286]

>  <DISPLAY_UNIT>
%

>  <inhibition at 3 µM>
104

$$$$
>  <COMPOUND>
C[C@H]1CCCN1C(=O)c1nc(C(=O)NCc2n[nH]c(=O)[nH]2)sc1-c1cnc(NC(C)(C)C)cc1C(F)(F)F [Example 302]

>  <DISPLAY_UNIT>
%

>  <inhibition at 3 µM>
86

$$$$
>  <COMPOUND>
C[C@H](Nc1cc(C(F)F)c(-c2sc(C(=O)N[C@@H]3CCC[C@H]3O)nc2C(=O)N2CC(F)(F)C[C@@H]2C)cn1)C(F)(F)F [Example 420]

>  <DISPLAY_UNIT>
%

>  <inhibition at 3 µM>
103

$$$$
>  <COMPOUND>
C[C@H]1CCCN1C(=O)c1nc(C(=O)NCC(C)(C)O)sc1-c1cnc(N[C@@H](C2CC2)C(F)(F)F)cc1C(F)F [Example 295]

>  <DISPLAY_UNIT>
%

>  <inhibition at 3 µM>
108

$$$$

====

Target: human RORγt ligand binding domain (RORγt LBD) (Homo sapiens (Human), UniProt P51449)
Sequence (P51449 other isoform, or with tags, fused parts or gaps): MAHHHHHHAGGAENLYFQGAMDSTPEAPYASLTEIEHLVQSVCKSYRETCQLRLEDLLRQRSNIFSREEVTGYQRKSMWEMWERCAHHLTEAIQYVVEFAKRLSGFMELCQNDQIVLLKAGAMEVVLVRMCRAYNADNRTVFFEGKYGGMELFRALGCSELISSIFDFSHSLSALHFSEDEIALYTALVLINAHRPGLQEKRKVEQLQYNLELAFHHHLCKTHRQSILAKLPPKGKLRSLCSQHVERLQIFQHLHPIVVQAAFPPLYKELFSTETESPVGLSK
Test: RORγt ThermoFluor® assay (thermal shift binding)
Details: read-out: ThermoFluor® Assay, Kd
pKd: −log10 of the molar value.
MEASURED_ENDPOINT: pKd

In the examples that follow, each entry is paired with its recorded pKd.
>  <MOLECULE>
C[C@H](Nc1cc(C(F)F)c(-c2sc(C(=O)N[C@@H]3CC[C@H]3O)nc2C(=O)N2C3CCC2CC3)cn1)C(F)(F)F (relative stereo)

>  <TARGET>
human RORγt ligand binding domain (RORγt LBD) (Homo sapiens (Human), UniProt P51449)

>  <pKd>
8.16

$$$$
>  <MOLECULE>
C[C@H]1CCCN1C(=O)c1nc(C(=O)N[C@H]2COC[C@@H]2O)sc1-c1cnc(NC(C)(C)C)cc1C(F)(F)F

>  <TARGET>
human RORγt ligand binding domain (RORγt LBD) (Homo sapiens (Human), UniProt P51449)

>  <pKd>
9.05

$$$$
>  <MOLECULE>
CC[C@H](Nc1cc(C(F)F)c(-c2sc(C(=O)NCC(C)(C)O)nc2C(=O)N2C3CCC2CC3)cn1)C(F)(F)F

>  <TARGET>
human RORγt ligand binding domain (RORγt LBD) (Homo sapiens (Human), UniProt P51449)

>  <pKd>
8.28

$$$$
>  <MOLECULE>
C[C@H](Nc1cc(C(F)F)c(-c2sc(C(=O)N[C@H]3CCC[C@@H]3O)nc2C(=O)N2C3CCC2CC3)cn1)C(F)(F)F

>  <TARGET>
human RORγt ligand binding domain (RORγt LBD) (Homo sapiens (Human), UniProt P51449)

>  <pKd>
8.70

$$$$
>  <MOLECULE>
C[C@H]1CC(F)(F)CN1C(=O)c1nc(C(=O)N[C@H]2C[C@H](O)C2)sc1-c1cnc(N[C@@H](C2CC2)C(F)(F)F)cc1C(F)F

>  <TARGET>
human RORγt ligand binding domain (RORγt LBD) (Homo sapiens (Human), UniProt P51449)

>  <pKd>
8.54

$$$$

a = C[C@H]1CCCN1C(=O)c1nc(C(=O)NCC(C)(C)O)sc1-c1cnc(NC(C)(C)C2CC2)cc1C(F)F
b = C[C@H]1CCCN1C(=O)c1nc(C(=O)NCC(C)(C)O)sc1-c1cnc(NC(C)(C)C2CC2)cc1C(F)(F)F
c = C[C@H]1CCCN1C(=O)c1nc(C(=O)N[C@@H]2COC[C@H]2O)sc1-c1cnc(NC(C)(C)C)cc1C(F)F
List items by pKd in falling order. // respond by listing labels in the order requested
b, a, c
(b: 9.47, a: 8.70, c: 8.24)
